Readings of growth inhibition for the listed compounds
- Experiment Summary: NCI Yeast Anticancer Drug Screen. Data for the cln2 rad14 strain (AID 165);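 also: 0% = growth equal to vehicle treated cultures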
- Measurement Parameters: S. cerevisiae cln2 rad14 strain, at 5.0 µM (retest, dose inferred, filed as 0.5), active compounds read high
The panel holds about 79,000 compounds, 15% with a hit somewhere; the sample as a whole holds those more often.
Measured Endpoint: growth inhibition (%)

1) OB1c2ccccc2CCc2ccccc21: -13
2) C=CCSc1nc2ccc(N3C(=O)C=CC3=O)cc2s1: 24
3) Oc1ccc(C(c2ccccc2)(c2ccccc2)c2ccccc2)cc1O: 0
4) O=C1C(=C2C(=O)c3ccccc3[N+]2=O)N([O-])c2ccccc21: -10
5) COc1ccc(C(c2ccc(OC)c(OC)c2)C(Cl)(Cl)Cl)cc1OC: 8
6) CC(C)(C)Oc1ccc(CC(NC(=O)OCC2c3ccccc3-c3ccccc32)C(=O)O)cc1 (stereo unspecified): 33
7) O=C(c1ccccc1)c1cn(/N=C\c2ccccc2)c(=O)nc1-c1ccccc1: 11
8) COc1ccc(CCN2CC(=O)N3CSCC3C2=O)cc1OC (stereo unspecified): 4
9) C/C(=N/O)c1cccc(C(F)(F)F)c1: -63
10) COc1cc(C2c3cc4c(cc3OC(NNc3ccccc3)C2C)OCO4)cc(OC)c1O (stereo unspecified): -5
11) O=C(N/N=C/c1ccccc1O)C1Cc2ccccc2C1C(Cl)Cl (stereo unspecified): 31

====

Readings of growth inhibition for the listed compounds
- Experiment Summary: NCI Yeast Anticancer Drug Screen. Data for the mlh1 rad18 strain (AID 175)
- Measurement Parameters: S. cerevisiae mlh1 rad18 strain growth inhibition; at 50.0 µM; active compounds read high
About 79,000 compounds went through this panel and 15% of them were active in at least one assay; those are over-represented in the sample as a whole.
Measured Endpoint: growth inhibition (%)

1. S=C(C#Cc1ccccc1)Nc1ccccc1: 99
2. OB1c2ccccc2CCc2ccccc21: 99
3. O=C(SCCCc1ccccc1)c1cc([N+](=O)[O-])cc([N+](=O)[O-])c1: 76.6
4. CCOCCOC(=O)c1cc([N+](=O)[O-])cc([N+](=O)[O-])c1: 95.9
5. CC(C)=CCC(CC=C(C)C)c1ccncc1 (tested in a mixture with another compound): 99.5
6. O=[N+]([O-])c1cnc(Sc2cncc[n+]2[O-])s1: 99.5
7. Cc1ccc2c(c1)CSCCO2: 99.5
8. COC(=O)CC1(O)c2cc(OC)c3cccc(OC)c3c2CCC1(C)C(=O)OC (centres undefined): 94.8
9. c1ccc2c(c1)CCc1[nH]c3c(c1-2)-c1ccccc1CC3: 86.3
10. CN(C)c1ccc2c(c1)N(C)c1ccccc1C2(Cl)c1ccccc1 (centres undefined): 99.4
11. COc1ccc(CSC(=S)Nc2ccc(Cl)c([N+](=O)[O-])c2)cc1: 94.1
12. CC(=O)OC1=CC2=CCC3C(CCC4(C)C(C(C)=O)CCC34)C2(C)CC1 (centres undefined): 11.3
13. O=C1C=CC(=O)c2c(O)c(N3CCN(CCOCCO)CC3)c(Br)c(O)c21: 86.5
14. O=[N+]([O-])c1ccc(S)c(Cl)c1: 93.5
15. Oc1[nH]c2ccccc2c1N=NC(=S)N1CCCC1: 57.8
16. O=C1c2ccccc2C(=O)c2c1ccc(O)c2O.[Cu]: 96.8
17. O=C(CC1C=Cc2ccccc2N1C(=O)c1ccccc1)c1ccccc1 (centres undefined): 88.5
18. CN(C)CCC[Si]1(C)c2ccccc2CCc2ccccc21: 78.8
19. O=[N+]([O-])c1ccc2c(c1)CCc1ccccc1-2: 68.7
20. CCS(=O)(=O)/C=C\S(=O)(=O)CC: 69
21. O=C1C(=C2C(=O)c3ccccc3[N+]2=O)N([O-])c2ccccc21: 85.5
22. CCCCCCC1CC(=O)C1(Cl)Cl (centres undefined): 86.2
23. Cc1cccc[n+]1CC(=O)c1cccc(O)c1: 7.25
24. c1ccc2c(Nc3ccc(Oc4ccc(Nc5c6ccccc6nc6ccccc56)cc4)cc3)c3ccccc3nc2c1: 10.3

Provenance of the data: PubChem BioAssay (NCI)
